Values were extracted from ChEMBL document CHEMBL4840351.

assay: Clearance in Sprague-Dawley rat at 5 mg/kg, iv measured upto 24 hrs by LC/MS/MS analysis; assay type: ADME, organism-based; settings: in vivo
measured_metric: clearance (mL/min/kg)
Answers are plain numbers, in mL/min/kg.

Query :: Entry C=CC(=O)N1CCCC[C@H]1c1nc(-c2ccc(C(=O)Nc3cc(C(F)(F)F)ccn3)cc2)c(C(N)=O)n1N has what clearance?
Result :: 13.4

---

experiment: Oral bioavailability in Sprague-Dawley rat at 5 mg/kg measured upto 24 hrs by LC/MS/MS analysis; type: ADME, organism-based; settings: in vivo
measured_metric: bioavailability
A complete answer gives the number followed by the unit.

Query :: Entry C=CC(=O)N1CCCC[C@H]1c1nc(-c2ccc(C(=O)Nc3cc(C(F)(F)F)ccn3)cc2)c(C(N)=O)n1N has what bioavailability?
Result :: 31.4%
